# experimental details: PK protocol (intravenous and oral administration)
# Format: in vivo, male Sprague Dawley rats
# study conditions: male, Sprague Dawley, plasma; rat, intravenous, dose 1.74 mg/kg
measured quantity: clearance (mL/min/kg)
Express it in mL/min/kg; write the number only.

Prompt: Report clearance for CC(O)C(C)n1ccc(S(=O)(=O)NC(=O)Nc2c3c(cc4c2CCC4)CCC3)n1 (racemic)
Response: 4.2

----------
# experimental details: PK protocol (intravenous and oral administration)
# Format: in vivo, male Sprague Dawley rats
# study conditions: male, Sprague Dawley, plasma; rat, intravenous, dose 1.42 mg/kg
measured quantity: AUC

Prompt: Report AUC for "CCn1nc(S(=O)(=O)NC(=O)Nc2c3c(cc4c2CCC4)CCC3)cc1C1(O)COC1"
Response: 2380 ng·h/mL
